Test system: NIH-3T3 viability, ATP luminescence
protocolSummary: murine fibroblast viability via ATP level – cell-based, murine fibroblasts, cytotoxicity control for Trypanosoma cruzi inhibitor project (AID 1159561)
conditionLabel: 4 days
Activity calls are given as the source filed them.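 The calls were made as follows: active = toxic to mouse fibroblast host cells, with IC50 below 50 µM; inactive = the rest.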
resultType: IC50

The cases that follow already have their IC50 on record.
O=C(C1CCCCC1)N1CCN(c2nnc(-c3ccccc3)c3ccccc23)CC1; > 50 µM (inactive)
CCCCNc1nccc(-c2c(-c3ccc(F)cc3)nn3c(N4CCOCC4)cccc23)n1; 10 µM
Cc1[nH]nc2c1C(c1ccc(OCc3ccccc3F)cc1)SCC(=O)N2 (centres undefined); > 50 µM (inactive)

From here, focus on the item given below.
Ask | Form field: reported IC50 of COc1ccc([N+](=O)[O-])cc1NC(=O)Nc1cccc(Cl)c1
Reply | > 50 µM (inactive)
